# Experiment: chemical genetic growth profiling, strain panel (AID 1159580);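 further: tested at 20 µM; growth read once vehicle control cultures reached saturation at 30 °C; 1 = growth at the plate median or of vehicle wells; lower values mean less growth of the strain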
# Protocol conditions: S. cerevisiae deletion strains, growth OD, locus YOR069W, strain VPS5, active compounds read low
Among all 5,500 compounds or so, about 2,000 (36%) were called active. Not shown: some 18% with an inconclusive outcome. Some of the results follow.
Measured quantity: normalized growth

compound="CC(COc1ccccc1)N(CCCl)Cc1ccccc1 (stereo not given)" data_value=1.01
compound=COc1c(C(=O)O)ccc2c1CCC(C)(C)O2 data_value=1.01
compound="CC(=O)N[C@@H]1[C@@H](C(O)[C@H](O)CO)O[C@](O)(C(=O)O)C[C@@H]1O (stereo not given in full)" data_value=1.01
compound="CCCNC(C)C(=O)Nc1ccccc1C (stereo not given)" data_value=1
compound="CC(=O)O[C@H]1CC[C@@]2(C)C(=CCC3C2CC[C@]2(C)C(=O)CCC32)C1 (stereo not given in full)" data_value=0.988
compound="CCN(CC)CCOC(=O)C(Cc1cccc2ccccc12)CC1CCCO1 (stereo not given)" data_value=1
compound="COc1cc(C)c2c(c1C=O)Oc1c(c(C)c(O)c3c1C(O)OC3=O)OC2=O (stereo not given)" data_value=0.992
compound="CC(=O)O[C@H]1CC[C@@]2(C)C(=CCC3C2CC[C@@]2(C)C3CC[C@@H]2C(C)CCCC(C)C)C1 (stereo not given in full)" data_value=1.01
compound=C[C@H](COc1ccccc1)N[C@H](C)[C@H](O)c1ccc(O)cc1 data_value=0.98
compound=CCOP(=S)(OCC)Oc1ccc2c(C)c(Cl)c(=O)oc2c1 data_value=0.979
compound=CO[C@@H]1[C@@H](O[C@@H]2O[C@H](C)[C@@H](O[C@H]3C[C@@](C)(O)[C@H](O)[C@H](C)O3)[C@H](N(C)C)[C@H]2O)[C@@H](CC=O)C[C@@H](C)[C@@H](O[C@H]2CC[C@H](N(C)C)[C@@H](C)O2)/C=C/C=C/C[C@H](C)OC(=O)C[C@H]1O data_value=1.01
compound=C[C@](N)(Cc1ccc(O)c(O)c1)C(=O)O data_value=0.991
compound=O=c1ccn([C@@H]2O[C@H](COP(=O)(O)OP(=O)(O)OP(=O)(O)O)[C@@H](O)[C@H]2O)c(=O)[nH]1 data_value=1.01
compound=COC(=O)[C@H]1[C@H]2C[C@@H]3c4[nH]c5cc(OC)ccc5c4CCN3C[C@H]2C[C@@H](OC(=O)c2cc(OC)c(OC)c(OC)c2)[C@@H]1OC data_value=1
compound="CC1=CC(=O)CC(C)(C)C1(O)/C=C/C(C)=C\\C(=O)O (stereo not given)" data_value=0.992

====

# Experiment: chemical genetic growth profiling, strain panel (AID 1159580);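 further: tested at 20 µM; growth read once vehicle control cultures reached saturation at 30 °C; 1 = growth at the plate median or of vehicle wells; lower values mean less growth of the strain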
# Protocol conditions: S. cerevisiae deletion strains, growth OD, locus YER110C, active compounds read low
Among all 5,500 compounds or so, about 2,000 (36%) were called active. Another 18% or so got no clear call; they are omitted. The list shows a part of the results.
Measured quantity: normalized growth

compound=Nc1nccs1 data_value=0.986
compound="CC1(C)C2CC(=O)O[C@@]3(C)C4=CC(=O)O[C@@H](c5ccoc5)[C@]4(C)CCC3[C@@]2(C)C=C[C@H]1O (some centres undefined)" data_value=0.983
compound="CC1(C)CC2C1CCC1(C)OC2(C)CCC1O (centres undefined)" data_value=1.01
compound=CCOP(=S)(OCC)SCSCC data_value=1
compound="CC1(C)CC2C1CCC1(C)OC1CCC2(C)O (centres undefined)" data_value=1.01
compound=COc1ccc(/C=C/C(=O)O)cc1OC data_value=1
compound="C=CCN1CC[C@]23c4c5ccc(O)c4OC2C(=O)CC[C@@]3(O)[C@H]1C5 (some centres undefined)" data_value=0.992
compound=Nc1ccc(S(=O)(=O)Nc2nccs2)cc1 data_value=0.995
compound=COS(C)(=O)=O data_value=1.02
compound=COc1cc(/C=C/C(=O)O)ccc1O data_value=0.981
compound="CC1CC2C(C(O)CC3(C)C2CCC3(O)C(=O)COC(=O)CCC(=O)O)C2(C)C=CC(=O)C=C12 (centres undefined)" data_value=0.977
compound="CC(=O)C1=C(O)C2C3c4c[nH]c5cccc(c45)CC3C(C)(C)N2C1=O (centres undefined)" data_value=1.01
compound=C=CC1=C(C)/C(=C/c2[nH]c(Cc3[nH]c(/C=C4\NC(=O)C(C)=C4C=C)c(C)c3CCC(=O)O)c(CCC(=O)O)c2C)NC1=O data_value=1.01
compound=S=c1[nH]c2ccccc2s1 data_value=0.998
